// endpoint Kd / system Receptor-type tyrosine-protein kinase FLT3 (Homo sapiens, UniProt P36888)

Below: 2 compounds and their reported Kd.
Could you tell me which Kd is on file for Oc1ccc(-c2nc(-c3ccncc3)c(-c3ccc(F)cc3)[nH]2)cc1 ?
> 10 µM

Any idea what Kd was measured for CCOc1cc2ncc(C#N)c(Nc3ccc(F)c(Cl)c3)c2cc1NC(=O)/C=C/CN(C)C ?
> 10 µM

Consider the additional compound presented here.
What value of Kd has been recorded for this entry: COCC(=O)NC/C=C/c1ccc2ncnc(Nc3ccc(Oc4ccc(C)nc4)c(C)c3)c2c1
> 10 µM

====

Biological target: Serine/threonine-protein kinase 4 (Homo sapiens)
Sequence (Q13043 whole entry): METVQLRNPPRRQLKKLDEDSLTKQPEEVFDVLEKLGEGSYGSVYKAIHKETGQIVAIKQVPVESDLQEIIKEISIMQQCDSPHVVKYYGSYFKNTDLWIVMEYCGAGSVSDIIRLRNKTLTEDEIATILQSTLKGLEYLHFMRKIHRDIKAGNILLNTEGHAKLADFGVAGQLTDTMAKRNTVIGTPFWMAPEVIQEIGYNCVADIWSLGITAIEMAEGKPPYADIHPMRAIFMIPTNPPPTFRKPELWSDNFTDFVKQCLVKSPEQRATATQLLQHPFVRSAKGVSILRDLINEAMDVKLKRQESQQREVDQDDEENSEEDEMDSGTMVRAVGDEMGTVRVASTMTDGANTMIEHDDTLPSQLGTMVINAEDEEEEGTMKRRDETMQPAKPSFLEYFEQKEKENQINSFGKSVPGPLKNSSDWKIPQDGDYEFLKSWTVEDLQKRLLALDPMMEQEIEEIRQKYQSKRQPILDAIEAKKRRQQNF
measured attribute: Kd

Examples from the recorded data:
Dear colleague, I am looking for the recorded Kd of the following compound: NC(=O)c1ccc(-c2nc(-c3ccc4c(c3)OCO4)c(-c3ccccn3)[nH]2)cc1
> 10 µM

Would you kindly share the measured Kd for Oc1ccc(-c2nc(-c3ccncc3)c(-c3ccc(F)cc3)[nH]2)cc1 ?
> 10 µM

# Kd lookup, item CCN1CCN(Cc2ccc(NC(=O)Nc3ccc(Oc4cc(NC)ncn4)cc3)cc2C(F)(F)F)CC1
> 10 µM

Give Kd for each of the items listed below.
1. Nc1nc(Nc2ccc(S(N)(=O)=O)cc2)nn1C(=O)c1c(F)cccc1F
2. COCC(=O)NC/C=C/c1ccc2ncnc(Nc3ccc(Oc4ccc(C)nc4)c(C)c3)c2c1

0.13 µM
> 10 µM

====

Let's go through some recorded Kd values for Phosphorylase b kinase gamma catalytic chain, skeletal muscle/heart isoform (Homo sapiens) together.

Below, 3 compounds whose answers are already recorded.
Report Kd for Oc1ccc(-c2nc(-c3ccncc3)c(-c3ccc(F)cc3)[nH]2)cc1 please.
> 10 µM

# input compound: Nc1nc(Nc2ccc(S(N)(=O)=O)cc2)nn1C(=O)c1c(F)cccc1F ; wanted: its Kd
> 10 µM

Name the reported Kd value associated with the compound NC(=O)c1ccc(-c2nc(-c3ccc4c(c3)OCO4)c(-c3ccccn3)[nH]2)cc1
> 10 µM

***
Any idea what Kd was measured for COCC(=O)NC/C=C/c1ccc2ncnc(Nc3ccc(Oc4ccc(C)nc4)c(C)c3)c2c1 ?
> 10 µM

====

Molecular target: Serine/threonine-protein kinase DCLK2 (Homo sapiens)
Sequence (Q8N568 whole entry): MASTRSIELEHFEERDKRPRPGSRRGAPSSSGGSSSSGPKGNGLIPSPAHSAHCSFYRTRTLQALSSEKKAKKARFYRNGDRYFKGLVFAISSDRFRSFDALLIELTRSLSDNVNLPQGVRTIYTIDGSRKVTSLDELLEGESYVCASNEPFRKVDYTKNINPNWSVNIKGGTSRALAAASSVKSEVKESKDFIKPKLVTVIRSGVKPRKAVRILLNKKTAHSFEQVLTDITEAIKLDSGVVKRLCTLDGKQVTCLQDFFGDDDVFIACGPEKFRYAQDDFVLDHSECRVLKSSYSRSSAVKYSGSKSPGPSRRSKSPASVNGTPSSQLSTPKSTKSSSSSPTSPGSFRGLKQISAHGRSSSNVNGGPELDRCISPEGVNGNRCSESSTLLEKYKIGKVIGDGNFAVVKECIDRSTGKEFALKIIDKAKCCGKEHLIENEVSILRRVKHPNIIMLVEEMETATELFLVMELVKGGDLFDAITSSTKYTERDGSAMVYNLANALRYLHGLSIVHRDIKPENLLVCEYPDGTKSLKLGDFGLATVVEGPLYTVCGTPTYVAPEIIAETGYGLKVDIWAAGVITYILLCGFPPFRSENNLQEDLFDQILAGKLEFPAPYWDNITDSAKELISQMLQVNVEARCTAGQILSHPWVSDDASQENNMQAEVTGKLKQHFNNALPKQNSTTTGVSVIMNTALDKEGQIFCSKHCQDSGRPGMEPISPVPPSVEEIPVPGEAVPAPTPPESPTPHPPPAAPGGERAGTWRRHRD
pKd: −log10 of the molar value.
measured attribute: pKd

Find pKd (Serine/threonine-protein kinase DCLK2 (Homo sapiens)) for the entry NC(=O)c1ccc(-c2nc(-c3ccc4c(c3)OCO4)c(-c3ccccn3)[nH]2)cc1
< 5.00

For the record Oc1ccc(-c2nc(-c3ccncc3)c(-c3ccc(F)cc3)[nH]2)cc1 , what value of pKd is listed for Serine/threonine-protein kinase DCLK2 (Homo sapiens)?
< 5.00

Report pKd for CCOc1cc2ncc(C#N)c(Nc3ccc(F)c(Cl)c3)c2cc1NC(=O)/C=C/CN(C)C tested on Serine/threonine-protein kinase DCLK2 (Homo sapiens).
< 5.00

Lookup: pKd / Serine/threonine-protein kinase DCLK2 (Homo sapiens) / Nc1nc(Nc2ccc(S(N)(=O)=O)cc2)nn1C(=O)c1c(F)cccc1F
5.35

Now look at this one.
Recall the recorded pKd for COCC(=O)NC/C=C/c1ccc2ncnc(Nc3ccc(Oc4ccc(C)nc4)c(C)c3)c2c1 with Serine/threonine-protein kinase DCLK2 (Homo sapiens) and state it.
< 5.00
